From: the supplement of paper PMC9492666

Please provide measured relative cell viability for the entries that follow.
- Test system: MDA-MB-231;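 also: breast cancer cell viability read out with the CCK-8 kit after co-treatment of each compound with the ferroptosis inducer RSL3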
- TEST_METHOD_NOTES: relative cell viability, compound + RSL3, vs DMSO (fraction of DMSO control); higher = less growth inhibition
- SETTINGS: 72 h
Where a name gives a salt, the structure may show the parent alone.
Number only, no unit.

MDA-MB-231 relative cell viability of CC1(C)CC[C@]2(C(=O)O[C@@H]3O[C@H](CO)[C@@H](O)[C@H](O)[C@H]3O)CC[C@]3(C)C(=CC[C@@H]4[C@@]5(C)CC[C@H](O[C@@H]6O[C@H](C(=O)O)[C@@H](O)[C@H](O)[C@H]6O[C@@H]6O[C@H](CO)[C@@H](O)[C@H](O)[C@H]6O)C(C)(C)[C@@H]5CC[C@]43C)[C@@H]2C1 [Ginsenoside Ro] + COC(=O)c1ccc([C@H]2c3[nH]c4ccccc4c3C[C@H](C(=O)OC)N2C(=O)CCl)cc1 is 0.478

MDA-MB-231 relative cell viability of C[C@@H]1OCC2(CCN(c3cnc(Sc4ccnc(N)c4Cl)c(N)n3)CC2)[C@@H]1N + COC(=O)c1ccc([C@H]2c3[nH]c4ccccc4c3C[C@H](C(=O)OC)N2C(=O)CCl)cc1 is 0.71

MDA-MB-231 relative cell viability of CC(C)n1c(/C=C/C(O)CC(O)CC(=O)O)c(-c2ccc(F)cc2)c2ccccc21 (centres undefined) [Fluvastatin sodium salt] + COC(=O)c1ccc([C@H]2c3[nH]c4ccccc4c3C[C@H](C(=O)OC)N2C(=O)CCl)cc1 is 0.547

MDA-MB-231 relative cell viability of c1cc(-c2cnn3cc(-c4ccc(OCCN5CCCCC5)cc4)cnc23)ccn1 [Dorsomorphin] + COC(=O)c1ccc([C@H]2c3[nH]c4ccccc4c3C[C@H](C(=O)OC)N2C(=O)CCl)cc1 is 0.31

MDA-MB-231 relative cell viability of Nc1cccc(S(=O)(=O)N2CCCN(S(=O)(=O)c3ccc4c(c3)OCCO4)CC2)c1 + COC(=O)c1ccc([C@H]2c3[nH]c4ccccc4c3C[C@H](C(=O)OC)N2C(=O)CCl)cc1 is 0.632

MDA-MB-231 relative cell viability of CCCCCCCCCCCCC/C=C/[C@@H](O)[C@@H](N)CO + COC(=O)c1ccc([C@H]2c3[nH]c4ccccc4c3C[C@H](C(=O)OC)N2C(=O)CCl)cc1 is 0.167

MDA-MB-231 relative cell viability of O=C(O)c1ccnc(N2CC(O)(c3ccc(OCc4c(-c5c(Cl)cccc5Cl)noc4C4CC4)cc3Cl)C2)c1 [Cilofexor] + COC(=O)c1ccc([C@H]2c3[nH]c4ccccc4c3C[C@H](C(=O)OC)N2C(=O)CCl)cc1 is 0.568

MDA-MB-231 relative cell viability of COc1cc(N(C)C)cc(CN(C)CCc2ccc([N+](=O)[O-])cc2)c1O [CDC25 Phosphatase Inhibitor I] + COC(=O)c1ccc([C@H]2c3[nH]c4ccccc4c3C[C@H](C(=O)OC)N2C(=O)CCl)cc1 is 0.886

MDA-MB-231 relative cell viability of Oc1ccc(/C=C/c2cc(O)cc(O)c2)cc1 [Resveratrol] + COC(=O)c1ccc([C@H]2c3[nH]c4ccccc4c3C[C@H](C(=O)OC)N2C(=O)CCl)cc1 is 0.508

MDA-MB-231 relative cell viability of O=C1C(SCCO)=C(SCCO)C(=O)c2ccccc21 + COC(=O)c1ccc([C@H]2c3[nH]c4ccccc4c3C[C@H](C(=O)OC)N2C(=O)CCl)cc1 is 0.925

MDA-MB-231 relative cell viability of CC(=O)Nc1nc(C)c(S(=O)(=O)Nc2ccc(C(O)(C(F)(F)F)C(F)(F)F)cc2)s1 + COC(=O)c1ccc([C@H]2c3[nH]c4ccccc4c3C[C@H](C(=O)OC)N2C(=O)CCl)cc1 is 0.952

MDA-MB-231 relative cell viability of Nc1ccc(C(=O)O)c(O)c1 [Aminopar] + COC(=O)c1ccc([C@H]2c3[nH]c4ccccc4c3C[C@H](C(=O)OC)N2C(=O)CCl)cc1 is 0.662

MDA-MB-231 relative cell viability of C[N+](C)(C)CC(O)CC(=O)[O-] (stereo not drawn) [L(-)-Carnitine] + COC(=O)c1ccc([C@H]2c3[nH]c4ccccc4c3C[C@H](C(=O)OC)N2C(=O)CCl)cc1 is 0.523

MDA-MB-231 relative cell viability of CC(C)[C@H]1CC[C@H](C(=O)N[C@H](Cc2ccccc2)C(=O)O)CC1 [Nateglinide] + COC(=O)c1ccc([C@H]2c3[nH]c4ccccc4c3C[C@H](C(=O)OC)N2C(=O)CCl)cc1 is 0.487

MDA-MB-231 relative cell viability of O=S(=O)(c1ccccc1)N(CC(F)(F)F)c1ccc(C(O)(C(F)(F)F)C(F)(F)F)cc1 + COC(=O)c1ccc([C@H]2c3[nH]c4ccccc4c3C[C@H](C(=O)OC)N2C(=O)CCl)cc1 is 0.638

MDA-MB-231 relative cell viability of Cc1coc2c1C(=O)C(=O)c1c-2ccc2c(C)cccc12 [Tanshinone I] + COC(=O)c1ccc([C@H]2c3[nH]c4ccccc4c3C[C@H](C(=O)OC)N2C(=O)CCl)cc1 is 0.305

MDA-MB-231 relative cell viability of Cc1cc(C)c(S(=O)(=O)Nc2cccc(C(F)(F)F)c2)c(C)c1 + COC(=O)c1ccc([C@H]2c3[nH]c4ccccc4c3C[C@H](C(=O)OC)N2C(=O)CCl)cc1 is 0.775

MDA-MB-231 relative cell viability of O=C(OC(C(F)(F)F)C(F)(F)F)N1CCC(C(O)(c2ccc3c(c2)OCO3)c2ccc3c(c2)OCO3)CC1 + COC(=O)c1ccc([C@H]2c3[nH]c4ccccc4c3C[C@H](C(=O)OC)N2C(=O)CCl)cc1 is 0.551

MDA-MB-231 relative cell viability of O=C(Nc1cnccc1Cl)N1CCN(Cc2ccc3c(c2)OC(F)(F)O3)CC1 + COC(=O)c1ccc([C@H]2c3[nH]c4ccccc4c3C[C@H](C(=O)OC)N2C(=O)CCl)cc1 is 0.568
